Test Summary: U937 monocyte cell death, Trypan blue staining
Format: cell-based
Reported Conditions: human; U937 monocytes, compound for 16 hours, Trypan blue dead cells; read-out: LC50
Property Name: CC50 at 16 h

- Compound: "C[C@@H](CNCc1ccc(-c2ncccn2)cc1)NCc1ccc(-c2ncccn2)cc1 [Compound 204]"
  Reported Result: "> 100 µg/mL"
- Compound: "c1ccc(-c2ncc(CNCCNCc3cnc(-c4ccccc4)nc3)cn2)cc1 [Compound 208]"
  Reported Result: "10 to 100 µg/mL"
- Compound: "CC(C)(CNCc1ccc(-c2ncccn2)cc1)NCc1ccc(-c2ncccn2)cc1 [Compound 206]"
  Reported Result: "> 100 µg/mL"
- Compound: "c1nnc(-c2ccc(CNCCNCc3ccc(-c4nnco4)cc3)cc2)o1 [Compound 202]"
  Reported Result: "> 100 µg/mL"
- Compound: "C[C@H](CNCc1ccc(-c2ncccn2)cc1)NCc1ccc(-c2ncccn2)cc1 [Compound 205]"
  Reported Result: "> 100 µg/mL"
- Compound: "CC(C)(NCc1ccc(-c2ncccn2)cc1)C(C)(C)NCc1ccc(-c2ncccn2)cc1 [Compound 207]"
  Reported Result: "> 100 µg/mL"
- Compound: "c1ncc(-c2ccc(CNCCNCc3ccc(-c4cncnc4)cc3)cc2)cn1 [Compound 201]"
  Reported Result: "> 100 µg/mL"
- Compound: "c1nc(N2CCCC2)ncc1CNCCCCNCc1cnc(N2CCCC2)nc1 [Compound 210]"
  Reported Result: "1 to 10 µg/mL"
- Compound: "c1ncn(-c2ccc(CNCCNCc3ccc(-n4cncn4)cc3)cc2)n1 [Compound 203]"
  Reported Result: "> 100 µg/mL"
- Compound: "c1ccc(-c2ncc(CNCCNCc3cnc(-c4ccccn4)nc3)cn2)nc1 [Compound 209]"
  Reported Result: "10 to 100 µg/mL"
